# assay_text: label from the status in PepcDB records
endpoint_label: protein production

MQHFKTKIEHFQIYIYFSAIILGILIGTNFPGISSILETLVAICIAILMFSMFSQIPFFELQKRVLNLKFVTALIIANFVILPILVYFLISIFNISSSAILIGLFLVLLTPCIDYVIVFTALGKGNAQYMLISTPILFVLQILLLPLYLTMFLDKSILTIIDIEPFIHSFFTFIIIPLLLALTLQLLSKKYYVMSQTLKATSWLPELFMSLVLFTVVGSQINKIANDLSVVVKVAPIYIIFMLIAPFIGYFTGKLFHLKPSILRTLAFSTSTRNALVVLPLALSLPDQWVTITTTVIITQTLIELIGELFYIKMIPSLIKS ... failed
MWVRVPPPAPFSIFLSPGDDIVKRRKSTRTSSFGVKGRESHDSSPFYSRAIYSNFSLPKPSEEDLIENPLPENLLDKVIEGDAREVLKKIPDCSIHLMVTSPPYNVGKEYDEDMTLDEYLEFIEEIMKEVYRVLVWGGRACFNVANLGRKPYIPLHAYLIHLFEKIGFLIRGEIIWDKGEAVSGSSTAWGSWMSPVNPVLRDQHEYIIVMSKGDLKRRKPSDREAKSTITREEFLEFTRSVWKFPPESAKRVGHPAPFPEELPYRCIQLYTFKGDVVLDPFAGVGTTCVAAVKTGRHFVGIEINPEYVKKAEERVKDILSKPTLFEDHC ... failed

* * *

# assay_text: label from the status in PepcDB records
endpoint_label: protein production

Use these answered entries as a reference point.
SFSAPIEDLQVRIAFLDELVEQLNTQLALQTQEIADLKKQMQLLYQRVEASDLSEGIAPFDPNTNKPPHY ... failed
MSIIDLTKLEQKVATMWDSILTNSPFIHEVLDGKATKALYAIYMTETYHYTKHNAKNQALVGIMGKDLPGKYLSFCFHHAHEEAGHELMALSDIASIGFDREDVLSSKPLPATETLIAYLYWISATGNPVQRLGYSYWAENVYGYIDPVLKAIQSTLDLTPQSMKFFIAHSKIDAKHAEEVNEMLHEVCKTQEDVDSVVAVMENSLVLTARILDDVWKEYQLFQSGASDRYAFLRDNA ... not failed
MKVSDILTVAIRLEEEGERFYRELSEHFNGEIKKTFLELADQERIHAEIFRKMSDQENWDEVDSYLAGYAFYEVFPDTSEILRRKDLTLKEVLDIAISVEKDSIILYYELKDGLVNSDAQKTVKKIIDQEKEHLRKLLEMKREST ... not failed
MSSFRSAWAGAPAGIAVARTGQSVPLLNAAAALAVAMAVGGWLSGARHASAIDATQIESWRAMVAQAMEPQALRQLRQLARGGSTPARTALGEALLDSRDASLRHEGVRWLEAAAQPADGAPGDARAQLALGKALLLGTGGVARDYPRALHLLRQAADRGDAAAAYYLGLMYRSGYGTAANTALAAHWFDGAARHGIPAAMFMLANAYRDGDGVPRDEARALALYEQAAEHELPEAVQALAMAYQNGELGLARDDAAFRKQWLETAHALKHPALTP ... failed
MSRRTVSLTVLALVLALLILVAPDVLLVIFAGVLFGVFLSAGGGLVQRVTGLQRGAGIALFIVLVLLALTGAFLAFAPAMFEQADALARQLPPAFEDLRDRISAYSWGPTLLSRLAPSRLLSSDGGFASTAVSATFGALGNVVIILFIGLYTAVDPGLYRRGLRALLAPPLRPRGDEVLAIADGTLRGWLGGQIISMTVVGVLTWLGLWLIGIPLAFILGLIAALLTFIPNIGPVLSAVPALLLALPEGAEQVGLVLAVFLTVQTFESYLVTPLIQKERVALPPALIISAQLLMGVLFGLMGLLLATPLAALALALVREVYVHDYLEEGPAKAQGPDRAD ... failed

Provide the reported protein production of each entry below, same order.
1. MQRTLDITQAMIDGYGRINGDNDIIHYDHDYAVQRGFRGTLLHGPHMTALAADLGARRYASDWLYRGKLHTKWIGPVCPGDTFVAALNEQGEIEAVSGGKTVMVGSASLAD
2. MYKDKVAVIMSVYKSDNPIDFNVAVNSIIRQTLKCDIFIYQDGPVSRELKSAINRFRKFNNIFIFVSEENKGLAYALNYLIDSCLLNNYQYIARMDSDDISHKNRMSIQVNFLEDNSDIHVVGSYCKEFGADCSLAEKKLPITHNDLLNFSITRCPFIHPSVMFRTSIFYNGLRYPVNTKYTEDMAFWFILLDLGYKFENIPETLIDYRMTENTVLRRRGFDKALSEVFIRFKYMIKFKKITVKNVSFIIGRFVFHLLPPNAIKYLYKKMR

Result:
["failed", "failed"]
